The measurements presented in this section are drawn from ChEMBL document CHEMBL1148274.

Test system: Aspergillus niger
Test: Antifungal activity against Aspergillus niger was determined by twofold Micro-broth dilution assay
Type: functional, organism-based
Conditions: Aspergillus niger; read-out: IC50
measured.endpoint: IC50

compound=C[C@H](CCC(=O)N[C@@H](CO)[C@@H](O)c1ccccc1)[C@H]1CC[C@H]2[C@@H]3CC[C@@H]4C[C@H](O)CC[C@]4(C)[C@H]3C[C@H](O)[C@]12C readout_value="> 250 µg/mL"
compound="C[C@H](CCC(=O)N[C@@H](CO)[C@@H](O)c1ccc([N+](=O)[O-])cc1)[C@H]1CC[C@H]2[C@@H]3C(O)C[C@@H]4C[C@H](O)CC[C@]4(C)[C@H]3C[C@H](O)[C@]12C (stereo partly drawn)" readout_value="> 250 µg/mL"
compound=Clc1ccccc1C(c1ccccc1)(c1ccccc1)n1ccnc1 readout_value="5 µg/mL"
